FYI, the data here is from patent US10010547B2.

# TESTED ON: UniProtKB O14757
# MEASUREMENT DESCRIPTION: Chk-1 Kinase Inhibiting Activity (33P-ATP filter assay, CHKtide substrate)
# Format: biochemical
# EXPERIMENTAL SETUP: against Chk-1 kinase; read-out: IC50
Structures can show the parent of a compound that is named as a salt.
QUANTITY KIND: IC50 (nM)
Write it as a number; the unit nM goes unstated.

Solved cases (3 shown):
>>> observed_value("COc1cc(N2CCCN(C(C)C)CC2)ccc1-c1cc(Nc2cnc(C#N)cn2)n[nH]1")
0.14
>>> observed_value("CCN1CCC(c2ccc(-c3cc(Nc4cnc(C#N)cn4)n[nH]3)c(OC)c2)CC1 [Example 60, hydrochloride]")
0.1
>>> observed_value("CCN1CCC[C@H]1COc1ccc(-c2cc(Nc3cnc(C#N)cn3)n[nH]2)c(OC)c1")
0.023

Here's the next entry for you.
[ask] I am curious: what IC50 value has been reported for "COc1cc(CN[C@@H](C)c2ccc(F)cc2)ccc1-c1cc(Nc2cnc(C#N)cn2)n[nH]1" ?
[reply] 0.097

* * *

# TESTED ON: Chk-1 kinase (Homo sapiens (Human))
# Sequence (O14757 whole entry): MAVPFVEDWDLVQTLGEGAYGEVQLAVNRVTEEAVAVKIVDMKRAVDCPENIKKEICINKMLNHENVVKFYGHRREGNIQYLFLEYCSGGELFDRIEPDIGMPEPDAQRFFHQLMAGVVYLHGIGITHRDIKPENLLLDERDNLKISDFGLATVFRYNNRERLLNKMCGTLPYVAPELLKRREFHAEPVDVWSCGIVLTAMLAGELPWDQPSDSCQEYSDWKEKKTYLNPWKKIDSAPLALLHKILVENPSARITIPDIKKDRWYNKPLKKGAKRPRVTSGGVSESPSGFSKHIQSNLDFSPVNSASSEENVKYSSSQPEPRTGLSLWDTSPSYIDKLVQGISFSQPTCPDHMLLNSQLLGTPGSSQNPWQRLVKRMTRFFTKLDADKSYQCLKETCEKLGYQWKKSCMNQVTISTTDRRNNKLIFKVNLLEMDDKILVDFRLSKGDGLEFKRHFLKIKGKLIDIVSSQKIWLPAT
# MEASUREMENT DESCRIPTION: Chk-1 Kinase Inhibiting Activity (33P-ATP filter assay, CHKtide substrate)
# Type: biochemical
# EXPERIMENTAL SETUP: against Chk-1 kinase; read-out: IC50
# Description: Chk-1 Kinase Inhibiting Activity The compounds of the invention were tested for activity against Chk-1 kinase using the materials and protocols set out below. Base Reaction buffer: 20 mM Hepes (pH 7.5), 10 mM MgCl2, 1 mM EGTA, 0.02% Brij35, 0.02 mg/ml BSA, 0.1 mM Na3VO4, 2 mM DTT, 1% DMSO […] From the results obtained by following the above protocol, the IC50 values against Chk-1 kinase of each of the compounds of Examples 1-153 were determined and these are shown in Table 3.
QUANTITY KIND: pIC50
A value of pIC50 is the negative decimal logarithm of a concentration given in moles per litre.

>>> observed_value("COc1cc(CNC2CCOC2)ccc1-c1cc(Nc2cnc(C#N)cn2)n[nH]1 (centres unmarked)")
9.80
>>> observed_value("COc1cc(CO[C@H]2CCN(C(C)C)C2)ccc1-c1cc(Nc2cnc(C#N)cn2)n[nH]1")
10.57
>>> observed_value("COCCN1CCC(c2ccc(-c3cc(Nc4cnc(C#N)cn4)n[nH]3)c(OC)c2)CC1")
10.29
>>> observed_value("COc1cc(C2(F)CNC2)ccc1-c1cc(Nc2cnc(C#N)cn2)n[nH]1")
9.85
>>> observed_value("COc1cc(N2CCN(C(C)C)CC2)cc(F)c1-c1cc(Nc2cnc(C#N)cn2)n[nH]1")
10.32

[ask] I am curious: what pIC50 value has been reported for "CCN1CCCN(c2ccc(-c3cc(Nc4cnc(C#N)cn4)n[nH]3)c(OC)c2)CC1" ?
[reply] 9.96

[ask] I am curious: what pIC50 value has been reported for "COc1cc(NCC2CCN(C(C)C)CC2)ccc1-c1cc(Nc2cnc(C#N)cn2)n[nH]1" ?
[reply] 10.06

[ask] I am curious: what pIC50 value has been reported for "COc1cc([C@@H]2CN(C(C)C)CCO2)ccc1-c1cc(Nc2cnc(C#N)cn2)n[nH]1" ?
[reply] 9.80
